Numbers sourced from ChEMBL document CHEMBL2203195.

Tested on: Escherichia coli
assay.name: Antibacterial activity against Escherichia coli CMCC 44103 after 24 hrs by agar dilution method
Assay type: functional
assay.setup: CMCC 44103, 24 h
measure: MIC

COc1c(NC(=O)[C@H]2CC[C@@H](COc3cccc(F)c3F)CC2)c(F)cc2c(=O)c(C(=O)O)cn(C3CC3)c12: > 32 µg/mL
CCn1cc(C(=O)O)c(=O)c2cc(F)c(NC(=O)[C@H]3CC[C@H](COc4c(C)cccc4C)CC3)c(F)c21: > 32 µg/mL
CCn1cc(C(=O)O)c(=O)c2cc(F)c(NC(=O)[C@H]3CC[C@H](COc4ccc([N+](=O)[O-])cc4)CC3)c(F)c21: > 32 µg/mL

Hi team, please reply with MIC for each item in this list.
1. CCn1cc(C(=O)O)c(=O)c2cc(F)c(N3CCNC(C)C3)c(F)c21 (stereo unspecified)
2. C[C@H]1COc2c(NC(=O)[C@H]3CC[C@H](COc4ccccc4)CC3)c(F)cc3c(=O)c(C(=O)O)cn1c23
3. C[C@H]1COc2c(NC(=O)[C@H]3CC[C@@H](COc4cccc(F)c4F)CC3)c(F)cc3c(=O)c(C(=O)O)cn1c23
4. CCn1cc(C(=O)O)c(=O)c2cc(F)c(NC(=O)[C@H]3CC[C@H](COc4ccccc4)CC3)c(F)c21
5. CCn1cc(C(=O)O)c(=O)c2cc(F)c(NC(=O)[C@H]3CC[C@H](COc4cccc(F)c4F)CC3)c(F)c21
6. CCn1cc(C(=O)O)c(=O)c2cc(F)c(NC(=O)[C@H]3CC[C@@H](COc4ccccc4)CC3)c(F)c21
7. Cc1cccc(C)c1OC[C@H]1CC[C@@H](C(=O)Nc2c(F)cc3c(=O)c(C(=O)O)cn4c3c2OC[C@@H]4C)CC1

2 µg/mL
16 µg/mL
> 32 µg/mL
> 32 µg/mL
> 32 µg/mL
> 32 µg/mL
> 32 µg/mL

Looking up CCn1cc(C(=O)O)c(=O)c2cc(F)c(NC(=O)[C@H]3CC[C@@H](COc4c(C)cccc4C)CC3)c(F)c21 , I found its MIC recorded as > 32 µg/mL
